Catalogue of compounds with associated pKb
Biological target: UniProt P15823
Sequence (whole entry): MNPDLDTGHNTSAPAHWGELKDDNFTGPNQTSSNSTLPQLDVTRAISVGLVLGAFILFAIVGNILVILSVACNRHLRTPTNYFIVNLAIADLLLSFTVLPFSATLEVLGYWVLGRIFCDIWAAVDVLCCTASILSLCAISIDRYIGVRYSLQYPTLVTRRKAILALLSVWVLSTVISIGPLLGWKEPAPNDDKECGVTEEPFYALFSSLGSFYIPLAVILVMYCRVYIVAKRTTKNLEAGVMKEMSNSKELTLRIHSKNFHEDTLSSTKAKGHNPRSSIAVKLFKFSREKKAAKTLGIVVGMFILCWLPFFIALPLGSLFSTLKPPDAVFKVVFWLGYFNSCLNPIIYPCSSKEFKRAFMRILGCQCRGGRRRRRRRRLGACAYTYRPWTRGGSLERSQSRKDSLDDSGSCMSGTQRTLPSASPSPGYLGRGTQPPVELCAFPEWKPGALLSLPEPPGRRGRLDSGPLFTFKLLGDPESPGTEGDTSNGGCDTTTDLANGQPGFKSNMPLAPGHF
Experiment: Antagonist activity against adrenergic Alpha-1B receptor in rat spleen assessed as inhibition of phenylephrine-induced response
Format: functional, tissue-based
ENDPOINT: pKb

{"COMPOUND": "COc1cc2nc(N3CCN(C(=O)c4ccc[nH]4)[C@H]4CCCC[C@H]43)nc(N)c2cc1OC", "ENDPOINT": "pKb", "RECORDED_MEASUREMENT": 8.05}
{"COMPOUND": "COc1cc2nc(N3CCN(C(=O)c4ccccn4)[C@H]4CCCC[C@H]43)nc(N)c2cc1OC", "ENDPOINT": "pKb", "RECORDED_MEASUREMENT": 8.64}
{"COMPOUND": "COc1cc2nc(N3CCN(C(=O)c4ccco4)[C@H]4CCCC[C@H]43)nc(N)c2cc1OC [CYCLAZOSIN]", "ENDPOINT": "pKb", "RECORDED_MEASUREMENT": 8.86}
